Origin of measurements: paper PMC7819943

Below, each of the sequences is paired with its reported binding signal value.
Target: OsWRKY34 (Oryza sativa, UniProt Q0JBA9 1-250)
Sequence (Q0JBA9 entry or part of it): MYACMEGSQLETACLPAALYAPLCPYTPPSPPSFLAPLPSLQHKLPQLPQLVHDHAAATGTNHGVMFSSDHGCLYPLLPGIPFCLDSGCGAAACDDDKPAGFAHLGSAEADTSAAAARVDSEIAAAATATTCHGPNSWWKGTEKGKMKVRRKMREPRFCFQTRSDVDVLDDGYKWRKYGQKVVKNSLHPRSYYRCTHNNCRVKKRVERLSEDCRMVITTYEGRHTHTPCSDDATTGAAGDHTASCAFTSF
Test: protein-binding microarray (RPBM); PBS, 2% BSA, 51.3 ng/ul salmon testes DNA, 50 uM zinc acetate, 200 nM TF, 25 C, 1 h; high values mean tight binding
Details: protein: recombinant; tags: N-terminal polyhistidine and DsRed monomer fusion (pET32a); label: CyDye5-dUTP incorporated in the synthesized complementary strand; 3' TTTTT single-stranded linker to array surface; dsDNA, one strand shown
Whole data set: some 68,000 sequences, median “fluorescence intensity (a.u.)” near 9,100, cut for the highest 2% near 16,000. For the sample, the highest values were picked, then their nearest neighbours and some sequences at random.
value-type: binding signal

1. CCTACACACGAAACCTCCGCGCCTCATCCGGGCTTCGCGACGGAGTCACCTAGTGCAG | 10600 fluorescence intensity (a.u.)
2. TATTGTCTGGGGTTTGCTTATTGGCTTTTCAGGCCATGTCCGGAGTCACCTAGTGCAG | 9320 fluorescence intensity (a.u.)
3. GGGTTCTTTCTGTAGTAGGGGTTTTTCTTTGTTTTCTCTTCGGAGTCACCTAGTGCAG | 17700 fluorescence intensity (a.u.)
4. TCCTTTTCTTTTCTTTTATTTTTTTTTGTTTTTTCCCGTTCGGAGTCACCTAGTGCAG | 8300 fluorescence intensity (a.u.)
5. TCCCACGATTTCCTTTCCTGCTTTTCTCATCCCTTTTGTTCGGAGTCACCTAGTGCAG | 16500 fluorescence intensity (a.u.)
6. CCATTGTGTCATTCAGTTATTGTTACTTTCAGTTGTTCTACGGAGTCACCTAGTGCAG | 12200 fluorescence intensity (a.u.)
7. TCTTCCCGCCTTTTTTTTCTTTGTTATTTTTCTTTTTTTTCGGAGTCACCTAGTGCAG | 18000 fluorescence intensity (a.u.)
8. AATATGTACTACTTCCGTTTCAGGTTATAAGACTTTCTAGCGGAGTCACCTAGTGCAG | 8400 fluorescence intensity (a.u.)
9. GTTACTGCACATTGACCATCGCGTTACTGCACCGTTCTGCCGGAGTCACCTAGTGCAG | 8940 fluorescence intensity (a.u.)

* * *

Target: OsWRKY34 (Oryza sativa, UniProt Q0JBA9 1-250)
Assay: protein-binding microarray (RPBM); PBS, 2% BSA, 51.3 ng/ul salmon testes DNA, 50 uM zinc acetate, 200 nM TF, 25 C, 1 h; high values mean tight binding
Conditions: protein: recombinant; tags: N-terminal polyhistidine and DsRed monomer fusion (pET32a); label: CyDye5-dUTP incorporated in the synthesized complementary strand; 3' TTTTT single-stranded linker to array surface; dsDNA, one strand shown
Whole data set: some 68,000 sequences, median “fluorescence intensity (a.u.)” near 9,100, cut for the highest 2% near 16,000. For the sample, the highest values were picked, then their nearest neighbours and some sequences at random.
value-type: binding signal

1) TGACGCCGTTGGTTTTTTTAAACATGTTTGACCATTCGTCCGGAGTCACCTAGTGCAG | 8990 fluorescence intensity (a.u.)
2) GCCGTCCGCCGTGAGCCGGTGCTGTCCACGACGTCGTCTTCGGAGTCACCTAGTGCAG | 9640 fluorescence intensity (a.u.)
3) ATTTGATCCTCTTTTTTCAACTTTGCTTATTTGACCCTTCCGGAGTCACCTAGTGCAG | 11100 fluorescence intensity (a.u.)
4) TTAGCACATGTTTGACCGTTCGTCTTATTCAAAAACTTTTCGGAGTCACCTAGTGCAG | 12600 fluorescence intensity (a.u.)
5) GACACTGTTGACTTTTTAGCACATATTTGACCGTTCGTCTCGGAGTCACCTAGTGCAG | 21300 fluorescence intensity (a.u.)
6) TAACGCCGTTTACCTTTTAACAAACGTTTTACCTTTCGTTCGGAGTCACCTAGTGCAG | 10400 fluorescence intensity (a.u.)
7) CTCCGCCGCCACGCTCGCCCGCTGTTTGCTCCGTCCGCAGCGGAGTCACCTAGTGCAG | 8350 fluorescence intensity (a.u.)
8) ATGACGCCGTTGACTTTTTAACAAACGTTTGACCATTCGTCGGAGTCACCTAGTGCAG | 21700 fluorescence intensity (a.u.)
9) AGCACATATTTGACCGTTCGTCTTATTCAAAAACTTTTATCGGAGTCACCTAGTGCAG | 8540 fluorescence intensity (a.u.)
10) GGATTTTAAGTTTTTACTTGCACTGTTTGACCATTCGTCTCGGAGTCACCTAGTGCAG | 9200 fluorescence intensity (a.u.)
11) GTGCCTGTTTGCTTCAGTGATGCTGGTGGTGGTTGCCTAACGGAGTCACCTAGTGCAG | 9460 fluorescence intensity (a.u.)
12) ATCCGATCTCTCTTCTCATTCTCTTCTCTTGGTTTGGGGTCGGAGTCACCTAGTGCAG | 8220 fluorescence intensity (a.u.)
13) GTGGTTGATTTGACCTTTTACATTGTACAGATGGTATTGGCGGAGTCACCTAGTGCAG | 8480 fluorescence intensity (a.u.)
14) GACGCCGTTGACTTTTTATCACATATTTGACCGTTCGTCTCGGAGTCACCTAGTGCAG | 20400 fluorescence intensity (a.u.)
15) TATGTCACGTATAAAATTCTAATGCTAGCTAACTACCATACGGAGTCACCTAGTGCAG | 8340 fluorescence intensity (a.u.)
16) CTTCCCTAAATGTTTGACGCCGTTGACTTTTCTAAACATGCGGAGTCACCTAGTGCAG | 18600 fluorescence intensity (a.u.)
17) GATACCGTTGACTTTTTAGCACATATTTGACCGTTCGTCTCGGAGTCACCTAGTGCAG | 39400 fluorescence intensity (a.u.)
18) CCCCATTTTCTTTGTTTCTACTTCTCTTTCCCTTTCTTGTCGGAGTCACCTAGTGCAG | 10700 fluorescence intensity (a.u.)
19) CACATATCGTTTAAATTTTCGACTTGACCGTTTTTCAATTCGGAGTCACCTAGTGCAG | 9550 fluorescence intensity (a.u.)
